test system: UACC-257 melanoma; assay: NCI tumour cell line growth inhibition, 48 h
measure.name: TGI

1) N#CC(NNC(=O)c1c(Cl)c(Cl)c(Cl)c(Cl)c1-c1nc2ccc(C(=O)c3ccccc3)cc2[nH]1)c1ccccc1 (stereo not drawn)	> 100 µM
2) CC(C)NC(=O)OCc1nnn2c1CCC2	> 100 µM

Req: Give TGI for O=[N+]([O-])c1cnc(N(CCO)CCO)s1
Resp: > 100 µM

====

// TGI lookup, one value per entry
tested on: HCT-15 colon; experiment: NCI tumour cell line growth inhibition, 48 h

Recorded TGI, per entry:
1. CS(=O)(=O)c1ccc2c(c1)C(=O)c1c-2n(CCCBr)c(=O)c2cc([N+](=O)[O-])ccc12	> 100 µM
2. O=c1oc2ccc3ccccc3c2cc1-c1nc(-c2ccc([N+](=O)[O-])cc2)n[nH]1	> 100 µM
3. CC1=NN(c2cccc(Cl)c2)C2(C1=Cc1cccs1)C(Cl)C(=O)N2c1nc2ccccc2s1 (stereo not given)	51.7 µM
4. O=C(CC(=O)N1N=C(n2ccc3ccccc32)CC1c1ccccc1)Nc1ccc(Cl)cc1 (stereo not given)	> 100 µM
5. Fc1ccc(Oc2nc3ccccc3nc2-c2ccccc2)cc1	> 100 µM

Req: Give TGI for O=CC1CCC=CC1NC(=O)OCc1ccccc1 (stereo not given)
Resp: > 100 µM

Req: Give TGI for Fc1ccc(Nc2ncc(-c3cc(F)c(Cl)cc3Cl)s2)cc1Cl
Resp: > 100 µM

====

tested on: A549 NSCLC; assay: NCI tumour cell line growth inhibition, 48 h
measure.name: TGI

Recorded TGI, per entry:
1. COC1=CC(c2ccc[nH]2)=N/C1=C\c1[nH]c(C)c(C(=O)Oc2ccccc2)c1C	2.01 µM
2. O=[N+]([O-])c1cnc(N(CCO)CCO)s1	> 100 µM
3. COc1ccc2nc3cc([N+](=O)[O-])ccc3c(NNc3ccc([N+](=O)[O-])cc3)c2c1	> 100 µM
4. Clc1ccc(OCc2nnc3sc(SSc4nn5c(COc6ccc(Cl)cc6)nnc5s4)nn23)cc1	> 100 µM
5. C1=Nc2ccccc2Cn2nncc21	> 100 µM

Req: Give TGI for COc1ccc(CN2C(=O)/C(=C\C(=O)c3ccc(OCCN4CCCC4)cc3)c3ccccc32)cc1
Resp: 36.2 µM

Req: Give TGI for COC(=O)C(=NNc1ccccc1[N+](=O)[O-])C(=O)OC
Resp: > 100 µM

Req: Give TGI for O=c1c2ccccc2nc2n1CCc1c-2[nH]c2cc3c(cc12)OCO3
Resp: > 25 µM

Req: Give TGI for CC(O)CC(=O)CO[C@H]1[C@H](O)[C@@H](O)[C@@H](O)[C@@H]2NC(=O)c3c(cc4c(c3O)OCO4)[C@H]21 (some centres undefined)
Resp: 0.352 µM

Req: Give TGI for Clc1ccc(-c2nc3c(-c4ccccc4)nc(-c4ccccc4)cn3c2-c2ccc(Cl)cc2)cc1
Resp: > 100 µM

Req: Give TGI for Cc1cn(CC2=NC3CCCCC3N2)c(=O)[nH]c1=O (centres undefined)
Resp: > 100 µM

====

// TGI lookup, one value per entry
test system: LXFL 529 NSCLC; assay: NCI tumour cell line growth inhibition, 48 h

Req: Give TGI for N.N.N.N.N.N#Cc1nn[n-]n1.[Cl-].[Co+3]
Resp: > 100 µM

Req: Give TGI for CC(C)COC(=O)c1ccc(N=Cc2ccc(C=Nc3ccc(C(=O)OCC(C)C)cc3)cc2)cc1
Resp: > 100 µM

====

system: CAKI-1 renal; experiment: NCI tumour cell line growth inhibition, 48 h
// TGI lookup, one value per entry

Recorded TGI, per entry:
1) NC1=NCC(CN2CCCCC2)O1 (centres undefined)	> 100 µM
2) NS(=O)(=O)c1ccc(N=Nc2c(O)[nH]c3ccc(C(=O)NCCc4cnc[nH]4)cc23)cc1	> 25 µM
3) Cc1ccc(S(=O)(=O)OCC(=O)Nc2ccc(C(=O)O)c(O)c2)cc1	91.1 µM

Req: Give TGI for CCOC(=O)NC(Nc1ccc(S(=O)(=O)Nc2ccc(OC)nn2)cc1)(C(F)(F)F)C(F)(F)F
Resp: > 100 µM

Req: Give TGI for Clc1ccc(C2CC(c3cccc(Nc4ccncc4)c3)=NN2c2ccccc2)cc1 (centres undefined)
Resp: 2.84 µM

Req: Give TGI for CC(C(=O)NCCNC(=O)CCCC(=O)N(C)O)C(=O)NCCNC(=O)CCCC(=O)N(C)O
Resp: > 100 µM

Req: Give TGI for Cc1n[nH]c(=O)n1Nc1ccccc1
Resp: > 100 µM

Req: Give TGI for COC(=O)[C@H](C)NC(=O)C1(CNC(=O)[C@H](C)NC(=O)OC(C)(C)C)Cc2ccccc2-c2ccccc2C1
Resp: > 39.6 µM

Req: Give TGI for CCN(CC)C(=S)/N=C(\SC(=S)N(CC)CC)c1ccccc1
Resp: > 100 µM

====

test system: TK-10 renal; assay: NCI tumour cell line growth inhibition, 48 h; in the data active means GI50 below about 0.43 µM; inactive means the rest
Give your call using only these classes: 1 (active), 0 (inactive)

Req: What was the test verdict on Cc1cc2c(C(=O)NCC#N)cccc2n1-c1nc2c(c(NCc3ccccc3)n1)CCCC2 ?
Resp: 1

Req: What was the test verdict on Clc1ccc(-c2nc3c(-c4ccccc4)nc(-c4ccccc4)cn3c2-c2ccc(Cl)cc2)cc1 ?
Resp: 0

Req: What was the test verdict on O=C(Nc1ccc(Oc2ccc(NC(=O)Nc3ccccc3Cl)cc2)cc1)Nc1ccccc1Cl ?
Resp: 0

Req: What was the test verdict on O=C(/C=C\c1cc(Br)ccc1O)/C=C/c1cc(Br)ccc1O ?
Resp: 0

====

tested on: HS 578T breast; experiment: NCI tumour cell line growth inhibition, 48 h
measure.name: TGI (µM)
All answers are understood in µM, so give the number only.

1. CCC(=O)N(c1ccccc1)C(C)CN1CCC(O)(c2cccc(C(F)(F)F)c2)CC1 (stereo not drawn)	99.7

Could you now look at the following compound, please?
Req: Give TGI for this entry on HS 578T breast: CCC1(OC(=O)CNC)C(=O)OCc2c1cc1n(c2=O)Cc2cc3ccccc3nc2-1 (stereo not drawn)
Resp: 40.8

====

test system: ACHN renal; assay: NCI tumour cell line growth inhibition, 48 h
measure.name: GI50

1. N.N.N.N.N.N#Cc1nn[n-]n1.[Cl-].[Co+3]	> 100 µM

Req: Give GI50 for C=C1C[C@@H](O)[C@@H](Br)C(C)(C)[C@]12CCC(C)(Br)C(Cl)C2 (some centres not stated)
Resp: 18.5 µM

Req: Give GI50 for Clc1ccc(C2CC(c3cccc(Nc4ccncc4)c3)=NN2c2ccccc2)cc1 (configuration not stated)
Resp: 1.66 µM

Req: Give GI50 for CC(=O)OC1CC2C(C)(C)CCC[C@]2(C)C2=C1C(O)=C(C(C)C)C(=O)C2=O (some centres not stated)
Resp: 0.465 µM

Req: Give GI50 for CNCCCn1c2c(c3ccc(Cl)cc3c1=O)C(=O)c1cc(OC)cnc1-2
Resp: 0.224 µM

Req: Give GI50 for COc1cccc(CCNC(=O)CC(c2ccccc2)(c2ccccc2)c2ccccc2)c1
Resp: 7.84 µM

Req: Give GI50 for CCC[CH2][Sn]1([CH2]CCC)[O]C(=O)CN=C(C)c2ccccc2[O]1
Resp: 0.881 µM

====

test system: HCT-15 colon; experiment: NCI tumour cell line growth inhibition, 48 h
measure.name: TGI

Recorded TGI, per entry:
1. O=C(CN(Cc1ccccc1)Cc1ccccc1)N1CCc2c([nH]c3ccccc23)C1c1cccnc1 (stereo not drawn)	> 100 µM
2. COc1ccc(NC(=S)C#N)cc1	> 100 µM

Could you now look at the following compound, please?
Req: Give TGI for C[C@@H](Oc1ccc(Oc2cnc3ccc(Cl)cc3n2)cc1)C(=O)O
Resp: > 100 µM

====

test system: SK-MEL-2 melanoma; test: NCI tumour cell line growth inhibition, 48 h
// TGI lookup, one value per entry

1) COc1ccc(N=N/C(=N\NC(=O)c2cc(Br)ccc2O)c2ccc(N(CCC#N)CCC#N)cc2OC)cc1	> 150 µg/mL
2) COC(=O)C(=NNc1ccccc1[N+](=O)[O-])C(=O)OC	> 100 µM

Could you now look at the following compound, please?
Req: Give TGI for CCOc1ccc(N2C(=O)NC3(c4ccccc4)N(C)C(=O)N(C)C23c2ccccc2)cc1 (stereo not drawn)
Resp: > 100 µM

====

// TGI lookup, one value per entry
tested on: CCRF-CEM leukemia; assay: NCI tumour cell line growth inhibition, 48 h

Recorded TGI, per entry:
1) COC(=O)C(=O)C(C#N)c1cccc(Cl)c1 (stereo not drawn)	> 100 µM
2) CN(C)CCOc1ccc2[nH]c(C(=O)N3CC(CCl)c4c3cc([N+](=O)[O-])c3ccccc43)cc2c1 (stereo not drawn)	> 100 µM

Req: Give TGI for COc1ccc(N=N/C(=N\NC(=O)c2cc(Br)ccc2O)c2ccc(N(CCC#N)CCC#N)cc2OC)cc1
Resp: > 150 µg/mL
